Biological target: RORγt (Mus musculus, UniProt P51450, T352K)
Sequence (P51450 with tags, fused parts or gaps T352K): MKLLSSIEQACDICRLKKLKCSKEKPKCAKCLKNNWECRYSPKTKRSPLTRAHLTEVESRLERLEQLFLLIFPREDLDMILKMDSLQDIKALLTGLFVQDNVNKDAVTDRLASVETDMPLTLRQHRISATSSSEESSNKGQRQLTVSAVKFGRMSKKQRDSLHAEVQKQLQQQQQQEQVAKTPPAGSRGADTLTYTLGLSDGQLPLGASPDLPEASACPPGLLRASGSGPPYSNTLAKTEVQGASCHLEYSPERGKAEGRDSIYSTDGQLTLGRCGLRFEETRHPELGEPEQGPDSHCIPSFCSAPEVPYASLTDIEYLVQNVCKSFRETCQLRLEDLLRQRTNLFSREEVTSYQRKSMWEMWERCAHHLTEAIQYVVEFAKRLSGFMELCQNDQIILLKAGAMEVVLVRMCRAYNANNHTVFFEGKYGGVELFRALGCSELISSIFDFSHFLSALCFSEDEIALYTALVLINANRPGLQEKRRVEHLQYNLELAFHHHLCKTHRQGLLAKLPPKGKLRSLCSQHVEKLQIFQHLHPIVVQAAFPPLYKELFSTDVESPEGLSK
Experiment: RORγt S2 cell Gal4-luciferase reporter assay
Settings: IC50(μM), Drosophila S2 cells, Gal4-RORγt luciferase reporter, 20 hr
recorded-endpoint: IC50

Known results for compounds:
{"compound": "COc1cc(O)c(C(CC(=O)N2CC(C)CC(C)C2)c2ccc(C(C)(C)C)cc2)c(OC)c1 (centres unmarked)", "experimental-system": "RORγt (Mus musculus, UniProt P51450, T352K)", "IC50": "1 to 10 µM"}
{"compound": "COc1cc(O)c(C(CC(=O)Nc2cccc3ccccc23)c2ccc3c(c2)OCO3)c(OC)c1 (centres unmarked)", "experimental-system": "RORγt (Mus musculus, UniProt P51450, T352K)", "IC50": "> 50 µM"}
{"compound": "COc1cc2ccccc2c(O)c1C(CC(=O)N1CCCC(C)C1)c1ccc2c(c1)OCO2 (centres unmarked)", "experimental-system": "RORγt (Mus musculus, UniProt P51450, T352K)", "IC50": "11 to 50 µM"}
{"compound": "COc1cc(O)c(CCC(=O)N2CCCC(C)C2)c(OC)c1 (centres unmarked)", "experimental-system": "RORγt (Mus musculus, UniProt P51450, T352K)", "IC50": "> 50 µM"}
{"compound": "CC1CCCN(C(=O)CC(c2ccc3c(c2)OCO3)c2ccc(F)cc2O)C1 (centres unmarked)", "experimental-system": "RORγt (Mus musculus, UniProt P51450, T352K)", "IC50": "1 to 10 µM"}

So what does the record say about IC50 for COc1cc(O)c(C(CC(=O)N2CC(C)CC(C)C2)c2ccc(C(=O)O)cc2)c(OC)c1 (centres unmarked) ? 1 to 10 µM

Repeat with COc1cc(O)c(C(CC(=O)NCc2ccccc2)c2ccc3c(c2)OCO3)c(OC)c1 (centres unmarked) > 50 µM

And for COc1cc(O)c(C(CC(=O)N2CCCC(C)C2)c2ccc(-c3ccccc3)cc2)c(OC)c1 (centres unmarked) ? 11 to 50 µM

Can you handle COc1cccc(O)c1C(CC(=O)N1CC(C)CC(C)C1)c1ccc2c(c1)OCO2 (centres unmarked) next? < 1 µM
